Data origin, for the record: patent US11661403B2

System: 8XTBD luciferase reporter (YAP) in HEK293T cells
Measurement Protocol: YAP Reporter Assay
Assay type: cell-based
Study Conditions: Homo sapiens, HEK-293T; HEK293T cells stably transfected with 8XTBD luciferase reporter and pRLTK; 24-hr incubation; top concentration 3 μM; read-out: Firefly Luciferase IC50
Property Measured: IC50

// below: answered molecules
- Molecule: "C#CC(C)(C)c1nnc(-c2ccccc2Nc2ccc(C(F)(F)F)cc2)o1"
  Value: "< 100 nM"
- Molecule: "CC(CN(C)C#N)c1nnc(-c2ccccc2Nc2ccc(C(F)(F)F)cc2)o1 (stereo not shown)"
  Value: "< 100 nM"
- Molecule: "N#CCNC(=O)c1nnc(-c2ccccc2Nc2ccc(C(F)(F)F)cc2)o1"
  Value: "< 100 nM"

# context switch: different molecule, same IC50
**Q:** Hello, I am looking for reported IC50 with 8XTBD luciferase reporter (YAP) in HEK293T cells for CNC(=O)C1(c2nnc(-c3ccccc3Nc3ccc(C(F)(F)F)cc3)o2)CC1 . Could you help?
**A:** 100 to 1000 nM

---

Tested on: 8XTBD luciferase reporter (YAP) in HEK293T cells
Measurement Protocol: YAP Reporter Assay
Type: cell-based
Study Conditions: Homo sapiens, HEK-293T; HEK293T cells stably transfected with 8XTBD luciferase reporter and pRLTK; 24-hr incubation; top concentration 3 μM; read-out: Firefly Luciferase IC50
Overview of reported IC50 across a group of compounds:

- Compound: "C#CCOc1nnc(-c2ccccc2Nc2ccc(C(F)(F)F)cc2)o1"
  IC50: "< 100 nM"
- Compound: "CNCC(C)(C)c1nnc(-c2ccccc2Nc2ccc(C(F)(F)F)cc2)o1"
  IC50: "100 to 1000 nM"
- Compound: "Cc1ccc(S(=O)(=O)OC(c2nnc(-c3ccccc3Nc3ccc(C(F)(F)F)cc3)o2)C(F)(F)F)cc1 (stereo not shown)"
  IC50: "100 to 1000 nM"
- Compound: "CN(CCO)c1nnc(-c2ccccc2Nc2ccc(C(F)(F)F)cc2)o1"
  IC50: "100 to 1000 nM"
- Compound: "NC(=O)NC1(c2nnc(-c3ccccc3Nc3ccc(C(F)(F)F)cc3)o2)CC1"
  IC50: "100 to 1000 nM"
- Compound: "NCc1nnc(-c2ccccc2Nc2ccc(C(F)(F)F)cc2)o1"
  IC50: "100 to 1000 nM"

**Q:** Hello, I am looking for reported IC50 with 8XTBD luciferase reporter (YAP) in HEK293T cells for CN(C#N)CCc1nnc(-c2ccccc2Nc2ccc(C(F)(F)F)cc2)o1 . Could you help?
**A:** < 100 nM

---

Test system: 8XTBD luciferase reporter (YAP) in HEK293T cells
Measurement Protocol: YAP Reporter Assay
Assay type: cell-based
Study Conditions: Homo sapiens, HEK-293T; HEK293T cells stably transfected with 8XTBD luciferase reporter and pRLTK; 24-hr incubation; top concentration 3 μM; read-out: Firefly Luciferase IC50
pIC50: −log10 of the molar value.
Overview of reported pIC50 across a group of molecules:

// below: answered molecules
- Molecule: "O=C(NC1CC1)c1nnc(-c2ccccc2Nc2ccc(C(F)(F)F)cc2)o1 [Compound 195]"
  pIC50: "6.00 to 7.00"
- Molecule: "CC(Cc1nnc(-c2ccccc2Nc2ccc(C(F)(F)F)cc2)o1)N(C)C#N (stereo not drawn) [Compound 149]"
  pIC50: "> 7.00"
- Molecule: "CC1(c2nnc(-c3ccccc3Nc3ccc(C(F)(F)F)cc3)o2)CCO1 (stereo not drawn) [Compound 180]"
  pIC50: "> 7.00"
- Molecule: "FC(F)(F)c1ccc(Nc2ccccc2-c2nnc(C3CCO3)o2)cc1 (stereo not drawn) [Compound 182]"
  pIC50: "> 7.00"
- Molecule: "CN(C#N)C1(c2nnc(-c3ccccc3Nc3ccc(C(F)(F)F)cc3)o2)CC1 [Compound 155]"
  pIC50: "> 7.00"
- Molecule: "Cc1oncc1-c1nnc(-c2ccccc2Nc2ccc(C(F)(F)F)cc2)o1 [Compound 40]"
  pIC50: "6.00 to 7.00"
- Molecule: "C[C@@]1(c2nnc(-c3ccccc3Nc3ccc(C(F)(F)F)cc3)o2)CCNC1=O [Compound 75]"
  pIC50: "> 7.00"
- Molecule: "O=C1OCC(c2nnc(-c3ccccc3Nc3ccc(C(F)(F)F)cc3)o2)O1 (stereo not drawn) [Compound 29]"
  pIC50: "> 7.00"

**Q:** Quick one: pIC50 for Cc1ocnc1-c1nnc(-c2ccccc2Nc2ccc(C(F)(F)F)cc2)o1 [Compound 35] ?
**A:** 6.00 to 7.00

**Q:** Would you kindly repeat that for CC(=O)c1nnc(-c2ccccc2Nc2ccc(C(F)(F)F)cc2)o1 [Compound 85] ?
**A:** > 7.00

**Q:** Would you kindly repeat that for CC(C)(c1nnc(-c2ccccc2Nc2ccc(C(F)(F)F)cc2)o1)S(C)(=O)=O [Compound 163] ?
**A:** 6.00 to 7.00

**Q:** Would you kindly repeat that for COCC(C)NC(=O)c1nnc(-c2ccccc2Nc2ccc(C(F)(F)F)cc2)o1 (stereo not drawn) [Compound 188] ?
**A:** 6.00 to 7.00

**Q:** Would you kindly repeat that for FC(F)(F)c1ccc(Nc2ccccc2-c2nnc(-c3cnco3)o2)cc1 [Compound 37] ?
**A:** 6.00 to 7.00

**Q:** Would you kindly repeat that for C[C@]1(c2nnc(-c3ccccc3Nc3ccc(C(F)(F)F)cc3)o2)CCNC1=O [Compound 76] ?
**A:** > 7.00

**Q:** Would you kindly repeat that for CN(C#N)CC(C)(C)c1nnc(-c2ccccc2Nc2ccc(C(F)(F)F)cc2)o1 [Compound 146] ?
**A:** > 7.00

**Q:** Would you kindly repeat that for N#CC1(Cc2nnc(-c3ccccc3Nc3ccc(C(F)(F)F)cc3)o2)CC1 [Compound 88] ?
**A:** 6.00 to 7.00

**Q:** Would you kindly repeat that for FC(F)(F)c1ccc(Nc2ccccc2-c2nnc(C3(F)CC3)o2)cc1 [Compound 63] ?
**A:** 5.30 to 6.00

**Q:** Would you kindly repeat that for C#CCCNC(=O)c1nnc(-c2ccccc2Nc2ccc(C(F)(F)F)cc2)o1 [Compound 115] ?
**A:** > 7.00
